# measured on: CCR4 (Homo sapiens, UniProt P51679)
# Construct: CEM Cells Endogenous Express CCR4; endogenous in cells; host or cells: CEM cells
# Sequence (P51679 1-360): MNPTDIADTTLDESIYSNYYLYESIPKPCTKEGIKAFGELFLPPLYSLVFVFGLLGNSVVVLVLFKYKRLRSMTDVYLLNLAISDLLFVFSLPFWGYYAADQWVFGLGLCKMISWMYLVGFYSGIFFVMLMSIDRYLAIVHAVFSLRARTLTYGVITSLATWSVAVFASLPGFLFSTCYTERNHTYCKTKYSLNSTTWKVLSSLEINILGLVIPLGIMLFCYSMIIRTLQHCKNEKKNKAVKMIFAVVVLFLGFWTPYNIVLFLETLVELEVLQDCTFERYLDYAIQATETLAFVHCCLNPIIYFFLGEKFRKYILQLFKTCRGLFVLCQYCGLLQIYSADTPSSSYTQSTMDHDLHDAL
# measurement description: CEM cell chemotaxis (migration) assay to CCL22 (MDC) in 100% Fetal Bovine Serum (FBS)
# Assay type: cell-based
# details: CEM cells in 100% FBS with 1% HEPEs; recombinant human CCL22 0.1 nM; 37° C. 60 minutes
Collected IC50 values appear next to each entry.

Known results for molecules:
smiles_text=C[C@@H](Nc1ncc(C(F)(F)F)c(N2CCN(C(=O)[C@H]3CCCN3)CC2)n1)c1ccc(Cl)cc1Cl result="< 100 nM"
smiles_text=C[C@@H](Nc1nc(N2CCN(C(=O)[C@H]3CCC(=O)N3)CC2)ncc1F)c1ccc(Cl)cc1Cl result="< 100 nM"
smiles_text=C[C@@H](Nc1nc(N2CCN(C(=O)[C@H]3CCCN3)CC2)nc(N)c1Cl)c1ccc(Cl)cc1Cl result="< 100 nM"
smiles_text=C[C@@H](Nc1nc(N2CC[C@H](NC(=O)[C@@]3(C)CCCN3)[C@@H](O)C2)ncc1Cl)c1ccc(Cl)cc1Cl result="100 to 1000 nM"
smiles_text=C[C@@H](Nc1nc(N2CCC(NC(=O)[C@@H]3CCN(C)C3)CC2)ncc1Cl)c1ccc(Cl)cc1Cl result="100 to 1000 nM"
smiles_text=C[C@@H](Nc1nc(N2CCC(NC(=O)[C@H]3CN(C)C(=O)N3)CC2)ncc1Cl)c1ccc(Cl)cc1Cl result="> 1000 nM"

From here, focus on the item given below.
The molecule identified as C[C@@H](Nc1nc(N2CC[C@H](NC(=O)[C@H]3CCCN3)[C@@H](O)C2)ncc1Cl)c1ccc(Cl)cc1Cl registered its IC50 at < 100 nM
